# Tested on: human nerve growth factor (beta-NGF) (human, UniProt P01138 122-241)
# Sequence (P01138 122-241): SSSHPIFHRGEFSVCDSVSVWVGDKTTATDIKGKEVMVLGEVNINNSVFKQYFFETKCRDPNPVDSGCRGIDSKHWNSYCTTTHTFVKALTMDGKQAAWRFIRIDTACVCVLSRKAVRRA
# Test: cell-based or functional assay

>  <Binder>
1126G5 human IgG4 (antibody, V domains shown) VH: EVQLVQSGAEVKKPGSSVKVSCKASGGTFSTYGISWVRQAPGQGLEWIGGIIPIFDTGNSAQSFQGRVTITADESTSTAYMEVSSLRSDDTAVYYCASSSRIYDFTSGLAPYYDMDVWGQGTMVTVSS VL: QAVLTQPSSVSTPPGQKVTISCSGSSSNIGNNYVSWYQQLPGTAPKLLIYDNNKRPPGIPDRFSGSKSGTSATLGITGLQTGDEADYYCGTWDSSLSTWVFGGGTKLTVL

>  <IC50, PC12 cell survival / nM>
1.5

$$$$
>  <Binder>
1230H7 human IgG4 (antibody, V domains shown) VH: EMQLVQSGAEVKKPGSSVKVSCKASGGTFSTYGISWVRQAPGQGLEWIGGIIPIFDTGNSAQSFQGRVTITADESTSTAYMEVSSLRSDDTAVYYCASSSRIYDFNSALISYYDMDVWGQGTMVTVSS VL: QAVLTQPSSVSTPPGQKVTISCSGSSSNIGNNYVSWYQQLPGTAPKLLIYDNNKRPSGIPDRFSGSKSGTSATLGITGLQTGDEADYYCGTWDSSLSAWVFGGGTKLTV

>  <IC50, PC12 cell survival / nM>
0.42

$$$$
>  <Binder>
G1165D4 human IgG4 (antibody, V domains shown) VH: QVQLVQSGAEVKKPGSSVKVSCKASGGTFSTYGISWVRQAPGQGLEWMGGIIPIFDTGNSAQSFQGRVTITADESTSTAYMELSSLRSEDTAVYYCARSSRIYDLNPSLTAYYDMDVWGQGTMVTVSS VL: QSVLTQPPSVSAAPGQKVTISCSGSSSNIENNYVSWYQQLPGTAPKLLIYDNNKRPSGIPDRFSGSKSGTSATLGITGLQTGDEADYYCGTWDSSLSAWVFGGGTKLTV

>  <IC50, PC12 cell survival / nM>
0.86

$$$$
>  <Binder>
1152H5 human IgG4 (antibody, V domains shown) VH: EVQLVQSGAEVKKPGSSVKVSCKASGGTFSTYGISWVRQAPGQGLVWIGGIIPIFDTGNSAQSFQGRVTITADESTSTAYMEVSSLRSDDTAVYYCASSSRIYDMISSLQPYYDMDVWGQGTMVTVSS VL: QAVLTQPSSVSTPPGQKATISCSGSSSNIGNNYVSWYQQLPGTAPKLLIYDNNKRPSGIPDRFSGSKSGTSATLGITGLQTGDEADYYCGTWDSSLSAWVFGGGTKLTVL

>  <IC50, PC12 cell survival / nM>
0.4

$$$$
